Where these numbers come from: PubChem BioAssay (NCI)

Quick list: growth per entry.
# System: EKVX NSCLC
# assay-info: NCI-60 one-dose screen, 48 h (100 = growth as untreated, 0 = no growth, -100 = all killed)
# condition-context: 10 µM
Compounds without any hit were thinned out: in the full panel of roughly 83,000, 20% have a hit. Calls of active or inactive are those of the source. Rule for the calls: active = growth percent below 10; inactive = the rest.

molecule | measured-on | growth
CC(=O)NS(=O)(=O)c1ccc(NC(=O)CSC2=NC(c3ccccc3)C(C(C)=O)=C(C)N2)cc1 (stereo not given) | EKVX NSCLC | 104% (inactive)
Brc1ccc(/C=N/Nc2ncnc3sc4c(c23)CCN(Cc2ccccc2)C4)cc1 | EKVX NSCLC | 94.2% (inactive)
COc1ccc2nc(Cl)c(-c3cc(-c4ccccc4)nc(=S)[nH]3)cc2c1 | EKVX NSCLC | 65.6% (inactive)
COc1ccc(NC(=O)Nc2ccc(OCC(=O)N=Nc3c(O)[nH]c4ccc([N+](=O)[O-])cc34)cc2)cc1 | EKVX NSCLC | 83.7% (inactive)
CN1C(=O)N(C)C2SC(N/N=C/c3ccccc3)=NC21 (stereo not given) | EKVX NSCLC | 90.7% (inactive)
O=C(Cn1nc(-c2ccccc2)ccc1=O)NNC(=S)NC1CCCCC1 | EKVX NSCLC | 98.6% (inactive)
O=c1c2ccccc2nc(COc2ccccc2)n1/N=C/c1ccc(N2CCCC2)cc1 | EKVX NSCLC | 88% (inactive)
COc1ccccc1C(=O)NNC(=O)CSc1nc2c(c(=O)[nH]1)CCCC2 | EKVX NSCLC | 91.5% (inactive)
C=CC(=O)Nc1nc(-c2cccc(NS(=O)(=O)c3cccc4c(N(C)C)cccc34)c2)cs1 | EKVX NSCLC | 29% (inactive)
CN1CCN(c2ccc(C(=O)/C=C/c3ccc(OC(F)F)cc3)cc2)CC1 | EKVX NSCLC | 80.1% (inactive)
